Reference source: patent US20240376076A1

# target_desc: USP7, Active human recombinant protein (Homo sapiens, UniProt Q93009)
# Construct: purchased CP Lot; 20200225001
# Sequence (Q93009 whole entry): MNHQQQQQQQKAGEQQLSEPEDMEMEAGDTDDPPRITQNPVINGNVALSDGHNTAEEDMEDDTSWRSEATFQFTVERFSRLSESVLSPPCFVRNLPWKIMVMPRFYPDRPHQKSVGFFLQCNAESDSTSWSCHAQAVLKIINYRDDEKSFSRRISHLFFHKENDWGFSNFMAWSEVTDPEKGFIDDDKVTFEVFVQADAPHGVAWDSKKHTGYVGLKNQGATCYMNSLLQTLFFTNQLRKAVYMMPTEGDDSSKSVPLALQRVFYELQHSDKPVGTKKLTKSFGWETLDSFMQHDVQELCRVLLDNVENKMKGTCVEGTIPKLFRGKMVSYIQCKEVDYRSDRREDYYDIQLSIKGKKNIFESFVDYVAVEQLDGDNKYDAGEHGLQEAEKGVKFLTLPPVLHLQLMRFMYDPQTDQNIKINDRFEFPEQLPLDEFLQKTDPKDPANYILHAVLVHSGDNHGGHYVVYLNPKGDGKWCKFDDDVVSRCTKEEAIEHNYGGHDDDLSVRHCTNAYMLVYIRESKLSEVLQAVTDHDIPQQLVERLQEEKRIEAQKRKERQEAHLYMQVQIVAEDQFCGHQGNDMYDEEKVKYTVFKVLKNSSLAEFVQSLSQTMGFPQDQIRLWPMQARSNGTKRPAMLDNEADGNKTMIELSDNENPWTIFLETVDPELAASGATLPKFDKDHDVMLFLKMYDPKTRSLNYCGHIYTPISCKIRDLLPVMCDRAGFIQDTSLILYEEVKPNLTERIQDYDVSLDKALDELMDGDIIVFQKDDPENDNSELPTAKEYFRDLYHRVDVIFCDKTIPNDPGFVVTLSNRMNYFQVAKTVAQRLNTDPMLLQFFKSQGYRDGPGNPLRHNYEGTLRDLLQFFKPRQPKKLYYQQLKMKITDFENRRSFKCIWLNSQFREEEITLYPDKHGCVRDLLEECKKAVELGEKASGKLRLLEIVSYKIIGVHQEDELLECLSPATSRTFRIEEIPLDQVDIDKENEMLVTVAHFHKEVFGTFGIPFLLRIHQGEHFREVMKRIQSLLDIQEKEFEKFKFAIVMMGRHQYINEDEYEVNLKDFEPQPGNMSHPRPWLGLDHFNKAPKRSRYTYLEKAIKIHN
# test_name: USP7 assay (Ubiquitin-Rhodamine 110 enzymatic assay)
# Format: biochemical
# applied_conditions: read-out: IC50
pIC50: −log10 of the molar value. Where a name gives a salt, the structure may show the parent alone.
assay_readout: pIC50

compound=Cc1cc(Cl)c2ccc(C(=O)NCCC[C@@H](Cc3ccccc3)C(=O)N3CCC(O)(Cn4cnc5cc(NC(=O)CCN(C)C)ccc5c4=O)CC3)cc2n1 target_desc="USP7, Active human recombinant protein (Homo sapiens, UniProt Q93009)" assay_readout=pIC50 reported_value="7.00 to 7.70"
compound=CN(C)CCCOc1ccc2c(=O)n(CC3(O)CCN(C(=O)[C@H](CCCNC(=O)c4cnc5c(Cl)ccnc5c4)Cc4ccccc4)CC3)cnc2c1 target_desc="USP7, Active human recombinant protein (Homo sapiens, UniProt Q93009)" assay_readout=pIC50 reported_value="6.00 to 7.00"
compound="O=C(CCn1cccn1)Nc1ccc2c(=O)n(CC3(O)CCN(C(=O)C(CCCNC(=O)c4ccc5c(Cl)ccnc5c4)Cc4ccccc4)CC3)cnc2c1 (centres unmarked)" target_desc="USP7, Active human recombinant protein (Homo sapiens, UniProt Q93009)" assay_readout=pIC50 reported_value="6.00 to 7.00"
compound="CN(C)CCCOc1ccc2c(=O)n(CC3(O)CCN(C(=O)C(Cc4ccccc4)N(C)CCNC(=O)c4ccc5c(Cl)c(C(=O)NC6CC6)cnc5c4)CC3)cnc2c1 (centres unmarked)" target_desc="USP7, Active human recombinant protein (Homo sapiens, UniProt Q93009)" assay_readout=pIC50 reported_value="7.00 to 7.70"
compound="C=CC(=O)Nc1ccc(C(F)(F)F)cc1N1CCC(C(=O)N2CCC(O)(Cn3cnc4cc(NC(=O)CCN5CCN(C)CC5)ccc4c3=O)CC2)C(c2ccccc2)C1 (centres unmarked)" target_desc="USP7, Active human recombinant protein (Homo sapiens, UniProt Q93009)" assay_readout=pIC50 reported_value="6.00 to 7.00"
compound=CN(C)CCCOc1ccc2c(=O)n(CC3(O)CCN(C(=O)[C@@H](CCCNC(=O)c4ccc5c(Cl)c(C(=O)NC6CC6)cnc5c4)Cc4ccccc4)CC3)cnc2c1 target_desc="USP7, Active human recombinant protein (Homo sapiens, UniProt Q93009)" assay_readout=pIC50 reported_value="> 7.70"
compound="CN(C)CCCOc1ccc2c(=O)n(CC3(O)CCN(C(=O)C(CCNC(=O)c4ccc5c(Cl)c(C(N)=O)cnc5c4)Cc4ccccc4)CC3)cnc2c1 (centres unmarked)" target_desc="USP7, Active human recombinant protein (Homo sapiens, UniProt Q93009)" assay_readout=pIC50 reported_value="> 7.70"
compound="CN(C)CCC(=O)Nc1ccc2c(=O)n(CC3(O)CCN(C(=O)C(CCCNC(=O)c4ccc5c(Cl)ccnc5n4)Cc4ccccc4)CC3)cnc2c1 (centres unmarked)" target_desc="USP7, Active human recombinant protein (Homo sapiens, UniProt Q93009)" assay_readout=pIC50 reported_value="7.00 to 7.70"
compound=O=C(CCN1CCNCC1)Nc1ccn2c(=O)c(CN3CCN(C(=O)[C@@H]4CCN(CCNC(=O)c5ccc6c(Cl)ccnc6c5)C[C@H]4c4ccccc4)CC3)cnc2c1 target_desc="USP7, Active human recombinant protein (Homo sapiens, UniProt Q93009)" assay_readout=pIC50 reported_value="< 6.00"
compound="CN1CCN(CCC(=O)Nc2ccc3c(=O)n(CC4(O)CCN(C(=O)C(CCCNC(=O)c5ccc6c(Cl)cc(-c7cccc(CN)c7)nc6c5)Cc5ccccc5)CC4)cnc3c2)CC1 (centres unmarked) [Compound 17, hydrochloride]" target_desc="USP7, Active human recombinant protein (Homo sapiens, UniProt Q93009)" assay_readout=pIC50 reported_value="7.00 to 7.70"
compound=CN(C)CCCOc1ccc2c(=O)n(CC3(O)CCN(C(=O)[C@H](CCCNC(=O)c4ccc5c(Cl)c(C(=O)NC6CC6)cnc5c4)Cc4ccccc4)CC3)cnc2c1 target_desc="USP7, Active human recombinant protein (Homo sapiens, UniProt Q93009)" assay_readout=pIC50 reported_value="> 7.70"
compound="CN1CCN(CCn2ncc3ncn(CC4(O)CCN(C(=O)C(CCCNC(=O)c5ccc6c(Cl)ccnc6c5)Cc5ccccc5)CC4)c(=O)c32)CC1 (centres unmarked)" target_desc="USP7, Active human recombinant protein (Homo sapiens, UniProt Q93009)" assay_readout=pIC50 reported_value="< 6.00"
compound="CN(C)CCC(=O)Nc1ccc2c(=O)n(CC3(O)CCN(C(=O)C(CCCNC(=O)c4ccc5c(Cl)c6c(nc5c4)CN(C)CC6)Cc4ccccc4)CC3)cnc2c1 (centres unmarked)" target_desc="USP7, Active human recombinant protein (Homo sapiens, UniProt Q93009)" assay_readout=pIC50 reported_value="7.00 to 7.70"
compound="CN(C)CCCOc1ccc2c(=O)n(CC3(O)CCN(C(=O)C(Cc4ccccc4)NCCNC(=O)c4ccc5c(Cl)c(C(N)=O)cnc5c4)CC3)cnc2c1 (centres unmarked)" target_desc="USP7, Active human recombinant protein (Homo sapiens, UniProt Q93009)" assay_readout=pIC50 reported_value="> 7.70"
compound=C=CS(=O)(=O)Nc1ccccc1-c1ccc(C(=O)N2CCC(O)(Cn3cnc4cc(NC(=O)CCN5CCN(C)CC5)ccc4c3=O)CC2)cc1 target_desc="USP7, Active human recombinant protein (Homo sapiens, UniProt Q93009)" assay_readout=pIC50 reported_value="7.00 to 7.70"
compound="CN1CCN(CCC(=O)Nc2ccc3c(=O)n(CC4(O)CCN(C(=O)C(CCCNC(=O)c5ccc6c(Cl)cc(-c7ccc(F)cc7)nc6c5)Cc5ccccc5)CC4)cnc3c2)CC1 (centres unmarked)" target_desc="USP7, Active human recombinant protein (Homo sapiens, UniProt Q93009)" assay_readout=pIC50 reported_value="6.00 to 7.00"
compound="CN1CCN(CCC(=O)Nc2ccc3c(=O)n(CC4(O)CCN(C(=O)C(CCCNC(=O)c5ccc6c(Cl)cc(-c7cccnc7)nc6c5)Cc5ccccc5)CC4)cnc3c2)CC1 (centres unmarked)" target_desc="USP7, Active human recombinant protein (Homo sapiens, UniProt Q93009)" assay_readout=pIC50 reported_value="6.00 to 7.00"
compound=C=CC(=O)Nc1ccccc1-c1ccc(C(=O)N2CCC(O)(Cn3cnc4cc(NC(=O)CCN5CCN(C)CC5)ccc4c3=O)CC2)cc1 target_desc="USP7, Active human recombinant protein (Homo sapiens, UniProt Q93009)" assay_readout=pIC50 reported_value="< 6.00"
compound=CN(C)CCCNc1ccc2c(=O)n(CC3(O)CCN(C(=O)[C@H](CCCNC(=O)c4ccc5c(Cl)cc(C6CC6)nc5c4)Cc4ccccc4)CC3)cnc2c1 target_desc="USP7, Active human recombinant protein (Homo sapiens, UniProt Q93009)" assay_readout=pIC50 reported_value="> 7.70"
compound=CN(C)CCC(=O)Nc1ccc2c(=O)n(CC3(O)CCN(C(=O)[C@@H]4CN(CCNC(=O)c5ccc6c(Cl)ccnc6c5)C[C@H]4c4ccccc4)CC3)cnc2c1 target_desc="USP7, Active human recombinant protein (Homo sapiens, UniProt Q93009)" assay_readout=pIC50 reported_value="6.00 to 7.00"
compound=CN(C)CCCNc1cc2ncn(CC3(O)CCN(C(=O)[C@@H](CCCNC(=O)c4ccc5c(Cl)cc(C6CC6)nc5c4)Cc4ccccc4)CC3)c(=O)c2cc1F target_desc="USP7, Active human recombinant protein (Homo sapiens, UniProt Q93009)" assay_readout=pIC50 reported_value="> 7.70"
compound="CN1CCN(CCC(=O)Nc2ccc3c(=O)n(CC4(O)CCN(C(=O)C(CCCNC(=O)c5ccc6c(Cl)cc(-c7cccc(C(F)(F)F)c7)nc6c5)Cc5ccccc5)CC4)cnc3c2)CC1 (centres unmarked)" target_desc="USP7, Active human recombinant protein (Homo sapiens, UniProt Q93009)" assay_readout=pIC50 reported_value="6.00 to 7.00"
compound="CN(C)CC(=O)Nc1ccc2c(=O)n(CC3(O)CCN(C(=O)C(CCCNC(=O)c4ccc5c(Cl)c6c(nc5c4)CCN(C)C6)Cc4ccccc4)CC3)cnc2c1 (centres unmarked)" target_desc="USP7, Active human recombinant protein (Homo sapiens, UniProt Q93009)" assay_readout=pIC50 reported_value="7.00 to 7.70"
